biological target: GlmU (Mycobacterium tuberculosis, UniProt P9WMN3); assay: biochemical; set-up: Inhibition constants from double reciprocal plots, DTNB acetyltransferase assay with varied substrate
Sequence (P9WMN3 2-495): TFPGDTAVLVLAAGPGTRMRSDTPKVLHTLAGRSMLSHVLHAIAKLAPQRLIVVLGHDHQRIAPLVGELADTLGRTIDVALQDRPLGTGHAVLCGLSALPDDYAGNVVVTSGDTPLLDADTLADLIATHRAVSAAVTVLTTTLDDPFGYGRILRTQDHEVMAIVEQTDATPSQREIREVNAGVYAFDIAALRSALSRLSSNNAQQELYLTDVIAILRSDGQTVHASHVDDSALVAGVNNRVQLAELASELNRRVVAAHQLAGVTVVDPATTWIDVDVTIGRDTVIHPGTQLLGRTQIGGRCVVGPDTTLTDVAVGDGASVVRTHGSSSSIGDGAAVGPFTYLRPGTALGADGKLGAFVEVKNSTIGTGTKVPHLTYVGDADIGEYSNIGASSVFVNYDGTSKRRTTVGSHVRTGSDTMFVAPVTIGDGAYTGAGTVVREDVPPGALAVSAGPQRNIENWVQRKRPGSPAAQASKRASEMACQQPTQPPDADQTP
property_name: Ki (µM)
Give the value in µM but do not write µM after it.

Example compounds with recorded Ki:
> print(dat)
                                   compound                             tested.target  result.value
1  O=C1C=CC(=O)N1c1cccc(N2C(=O)C=CC2=O)c1 [DHPP]  GlmU (Mycobacterium tuberculosis, UniProt P9WMN3)          26.3
2       O=c1oc2ccccc2c2c1Sc1ccccc1N2 [BCTZ]  GlmU (Mycobacterium tuberculosis, UniProt P9WMN3)          82.8

stdin: Query: Ki; subject: O=C1NC(=S)SC1=Cc1ccc(OCc2ccc([N+](=O)[O-])cc2)cc1 [NBTT]
stdout: 41.3

====

# pKi annotations
biological target: GlmU (Mycobacterium tuberculosis); assay: biochemical; design: Inhibition constants from double reciprocal plots, DTNB acetyltransferase assay with varied substrate
pKi is a log-scale quantity: -log10 of the concentration expressed in molar.

> print(dat)
                                   compound  result.value
1  O=C1C=CC(=O)N1c1cccc(N2C(=O)C=CC2=O)c1 [DHPP]          4.58

stdin: Test system GlmU (Mycobacterium tuberculosis); read-out pKi; what value for O=C1NC(=S)SC1=Cc1ccc(OCc2ccc([N+](=O)[O-])cc2)cc1 [NBTT] ?
stdout: 4.40
